- measured_on: Delta-type opioid receptor (Rattus norvegicus)
- Sequence (P33533 whole entry): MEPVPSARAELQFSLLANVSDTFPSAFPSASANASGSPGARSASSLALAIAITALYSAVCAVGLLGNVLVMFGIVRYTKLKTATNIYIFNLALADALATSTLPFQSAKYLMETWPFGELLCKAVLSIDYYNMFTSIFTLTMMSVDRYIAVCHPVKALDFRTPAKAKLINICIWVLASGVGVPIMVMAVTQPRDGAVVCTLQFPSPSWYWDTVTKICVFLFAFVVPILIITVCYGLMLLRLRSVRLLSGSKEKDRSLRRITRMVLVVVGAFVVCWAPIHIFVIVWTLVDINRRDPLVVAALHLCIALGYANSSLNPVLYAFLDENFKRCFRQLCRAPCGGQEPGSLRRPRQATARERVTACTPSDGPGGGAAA
- experimental_protocol: Opioid receptor delta 1 binding affinity by displacement of radioligand [3H][D-Pen]-enkephalin (DPDPE) from rat brain membrane synaptosomes
pKi: −log10 of the molar value.
Decide using pKi: a value greater than or equal to 7 is true, a smaller one is false.

smiles_record=CC(=O)OC[C@H]1O[C@H](O[C@H](C)[C@H](NC(=O)[C@H](Cc2ccccc2)NC(=O)[C@@H](C)NC(=O)[C@@H](N)Cc2ccc(O)cc2)C(=O)N[C@H](C(=O)N[C@H](C(=O)NCC(N)=O)C(C)C)C(C)C)[C@H](OC(C)=O)[C@@H](OC(C)=O)[C@@H]1OC(C)=O category=false
smiles_record=CC(=O)OC[C@@H]1O[C@H](O[C@@H](C)[C@H](NC(=O)[C@@H](NC(=O)[C@@H](NC(=O)[C@H](CC(=O)O)NC(=O)[C@H](Cc2ccccc2)NC(=O)[C@@H](C)NC(=O)[C@@H](N)Cc2ccc(O)cc2)C(C)C)C(C)C)C(=O)NCC(N)=O)[C@@H](OC(C)=O)[C@H](OC(C)=O)[C@H]1OC(C)=O category=true
smiles_record=C[C@@H](NC(=O)[C@@H](N)Cc1ccc(O)cc1)C(=O)N[C@@H](Cc1ccccc1)C(=O)N[C@H](C(=O)N[C@@H](Cc1ccc(O)cc1)C(=O)N1CCC[C@H]1C(=O)N[C@@H](CO)C(N)=O)[C@@H](C)O[C@H]1O[C@H](CO)[C@@H](O)[C@H](O)[C@H]1O category=false
smiles_record=CC(C)[C@H](NC(=O)[C@@H](NC(=O)[C@@H](NC(=O)[C@H](Cc1ccccc1)NC(=O)[C@@H](C)NC(=O)[C@@H](N)Cc1ccc(O)cc1)[C@@H](C)O[C@H]1O[C@H](CO)[C@@H](O)[C@@H](O)[C@H]1O)C(C)C)C(=O)NCC(N)=O category=false
smiles_record=CC(=O)OC[C@H]1O[C@H](O[C@H](C)[C@H](NC(=O)[C@H](Cc2ccccc2)NC(=O)[C@@H](C)NC(=O)[C@@H](N)Cc2ccc(O)cc2)C(=O)N[C@@H](Cc2ccc(O)cc2)C(=O)N2CCC[C@H]2C(=O)N[C@@H](CO)C(N)=O)[C@H](OC(C)=O)[C@H](OC(C)=O)[C@H]1OC(C)=O category=false
smiles_record=CC(C)[C@H](NC(=O)[C@H](CC(=O)O)NC(=O)[C@H](Cc1ccccc1)NC(=O)[C@@H](C)NC(=O)[C@@H](N)Cc1ccc(O)cc1)C(=O)N[C@H](C(=O)N[C@H](C(=O)NCC(N)=O)[C@@H](C)O[C@H]1O[C@H](CO)[C@@H](O)[C@H](O)[C@H]1O)C(C)C category=true

====

- measured_on: UniProt:P33535
- experimental_protocol: Opioid receptor mu 1 binding affinity by displacement of radioligand [3H][DAla,MePhe,Gly-ol]enkephalin (DAGO) from rat brain membrane synaptosomes
observation_type: Ki

smiles_record=CC(C)[C@H](NC(=O)[C@@H](NC(=O)[C@@H](NC(=O)[C@H](Cc1ccccc1)NC(=O)[C@@H](C)NC(=O)[C@@H](N)Cc1ccc(O)cc1)[C@@H](C)O[C@H]1O[C@H](CO)[C@@H](O)[C@@H](O)[C@H]1O)C(C)C)C(=O)NCC(N)=O measured_on=UniProt:P33535 observed_value="1990 nM"
smiles_record=CC(C)[C@H](NC(=O)[C@H](CC(=O)O)NC(=O)[C@H](Cc1ccccc1)NC(=O)[C@@H](C)NC(=O)[C@@H](N)Cc1ccc(O)cc1)C(=O)N[C@H](C(=O)N[C@H](C(=O)NCC(N)=O)[C@@H](C)O[C@H]1O[C@H](CO)[C@@H](O)[C@H](O)[C@H]1O)C(C)C measured_on=UniProt:P33535 observed_value="579 nM"
smiles_record=CC(=O)OC[C@H]1O[C@H](O[C@H](C)[C@H](NC(=O)[C@H](Cc2ccccc2)NC(=O)[C@@H](C)NC(=O)[C@@H](N)Cc2ccc(O)cc2)C(=O)N[C@H](C(=O)N[C@H](C(=O)NCC(N)=O)C(C)C)C(C)C)[C@H](OC(C)=O)[C@@H](OC(C)=O)[C@@H]1OC(C)=O measured_on=UniProt:P33535 observed_value="1520 nM"
smiles_record=CC(=O)OC[C@@H]1O[C@H](O[C@H](C)[C@H](NC(=O)[C@@H]2CCCN2C(=O)[C@H](Cc2ccc(O)cc2)NC(=O)CNC(=O)[C@H](Cc2ccccc2)NC(=O)[C@@H](C)NC(=O)[C@@H](N)Cc2ccc(O)cc2)C(=O)NCC(N)=O)[C@@H](OC(C)=O)[C@H](OC(C)=O)[C@H]1OC(C)=O measured_on=UniProt:P33535 observed_value="0.46 nM"

====

- measured_on: Mu-type opioid receptor (Rattus norvegicus, UniProt P33535)
- Sequence (P33535 whole entry): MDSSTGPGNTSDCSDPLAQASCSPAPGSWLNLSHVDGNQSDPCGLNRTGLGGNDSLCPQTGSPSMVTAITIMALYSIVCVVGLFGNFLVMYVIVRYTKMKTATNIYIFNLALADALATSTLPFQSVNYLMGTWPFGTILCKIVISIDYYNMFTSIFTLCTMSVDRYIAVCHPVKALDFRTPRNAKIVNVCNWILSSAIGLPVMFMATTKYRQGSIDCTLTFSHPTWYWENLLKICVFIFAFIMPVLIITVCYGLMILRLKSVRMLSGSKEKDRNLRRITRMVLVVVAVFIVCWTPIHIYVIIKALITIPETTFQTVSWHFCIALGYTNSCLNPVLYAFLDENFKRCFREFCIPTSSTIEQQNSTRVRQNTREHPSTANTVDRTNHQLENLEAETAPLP
- experimental_protocol: Opioid receptor mu 1 binding affinity by displacement of radioligand [3H][DAla,MePhe,Gly-ol]enkephalin (DAGO) from rat brain membrane synaptosomes
pKi: −log10 of the molar value.
observation_type: pKi

smiles_record=CC(=O)OC[C@H]1O[C@H](O[C@H](C)[C@H](NC(=O)[C@H](Cc2ccccc2)NC(=O)[C@@H](C)NC(=O)[C@@H](N)Cc2ccc(O)cc2)C(=O)N[C@@H](Cc2ccc(O)cc2)C(=O)N2CCC[C@H]2C(=O)N[C@@H](CO)C(N)=O)[C@H](OC(C)=O)[C@H](OC(C)=O)[C@H]1OC(C)=O measured_on="Mu-type opioid receptor (Rattus norvegicus, UniProt P33535)" observed_value=5.36
smiles_record=C[C@H](O[C@H]1O[C@@H](CO)[C@H](O)[C@@H](O)[C@@H]1O)[C@H](NC(=O)[C@@H]1CCCN1C(=O)[C@H](Cc1ccc(O)cc1)NC(=O)CNC(=O)[C@H](Cc1ccccc1)NC(=O)[C@@H](C)NC(=O)[C@@H](N)Cc1ccc(O)cc1)C(=O)NCC(N)=O measured_on="Mu-type opioid receptor (Rattus norvegicus, UniProt P33535)" observed_value=9.54
smiles_record=C[C@@H](NC(=O)[C@@H](N)Cc1ccc(O)cc1)C(=O)N[C@@H](Cc1ccccc1)C(=O)NCC(=O)N[C@@H](Cc1ccc(O)cc1)C(=O)N1CCC[C@H]1C(=O)N[C@@H](CO)C(N)=O measured_on="Mu-type opioid receptor (Rattus norvegicus, UniProt P33535)" observed_value=9.55
smiles_record=C[C@@H](NC(=O)[C@@H](N)Cc1ccc(O)cc1)C(=O)N[C@@H](Cc1ccccc1)C(=O)N[C@H](C(=O)N[C@@H](Cc1ccc(O)cc1)C(=O)N1CCC[C@H]1C(=O)N[C@@H](CO)C(N)=O)[C@@H](C)O[C@H]1O[C@H](CO)[C@@H](O)[C@H](O)[C@H]1O measured_on="Mu-type opioid receptor (Rattus norvegicus, UniProt P33535)" observed_value=5.77
smiles_record=CC(=O)OC[C@@H]1O[C@H](O[C@@H](C)[C@H](NC(=O)[C@@H](NC(=O)[C@@H](NC(=O)[C@H](CC(=O)O)NC(=O)[C@H](Cc2ccccc2)NC(=O)[C@@H](C)NC(=O)[C@@H](N)Cc2ccc(O)cc2)C(C)C)C(C)C)C(=O)NCC(N)=O)[C@@H](OC(C)=O)[C@H](OC(C)=O)[C@H]1OC(C)=O measured_on="Mu-type opioid receptor (Rattus norvegicus, UniProt P33535)" observed_value=6.20
